Target: Integrin alpha-V/beta-3 (Homo sapiens, UniProt P05106+P06756)
Sequence (P05106 27-788 limits assumed): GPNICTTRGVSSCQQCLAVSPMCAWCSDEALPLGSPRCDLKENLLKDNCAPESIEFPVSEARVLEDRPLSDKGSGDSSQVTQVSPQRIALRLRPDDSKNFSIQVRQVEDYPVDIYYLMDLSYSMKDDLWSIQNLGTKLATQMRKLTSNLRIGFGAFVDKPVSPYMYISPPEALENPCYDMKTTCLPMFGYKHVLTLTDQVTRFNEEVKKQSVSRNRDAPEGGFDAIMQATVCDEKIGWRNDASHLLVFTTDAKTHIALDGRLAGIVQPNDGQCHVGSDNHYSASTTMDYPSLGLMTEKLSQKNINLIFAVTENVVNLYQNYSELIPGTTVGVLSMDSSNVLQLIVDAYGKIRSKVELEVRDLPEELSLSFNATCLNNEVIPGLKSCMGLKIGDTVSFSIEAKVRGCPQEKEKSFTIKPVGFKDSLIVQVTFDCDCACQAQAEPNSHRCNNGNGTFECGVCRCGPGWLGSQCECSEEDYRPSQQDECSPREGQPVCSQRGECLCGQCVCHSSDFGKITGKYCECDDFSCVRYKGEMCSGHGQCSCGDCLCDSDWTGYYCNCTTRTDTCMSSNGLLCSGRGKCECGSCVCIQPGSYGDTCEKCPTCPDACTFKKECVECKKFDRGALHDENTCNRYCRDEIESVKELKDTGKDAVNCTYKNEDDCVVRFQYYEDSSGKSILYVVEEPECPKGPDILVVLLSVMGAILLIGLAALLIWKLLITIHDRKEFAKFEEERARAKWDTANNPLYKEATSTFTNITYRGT
Sequence (P06756 31-889 limits assumed): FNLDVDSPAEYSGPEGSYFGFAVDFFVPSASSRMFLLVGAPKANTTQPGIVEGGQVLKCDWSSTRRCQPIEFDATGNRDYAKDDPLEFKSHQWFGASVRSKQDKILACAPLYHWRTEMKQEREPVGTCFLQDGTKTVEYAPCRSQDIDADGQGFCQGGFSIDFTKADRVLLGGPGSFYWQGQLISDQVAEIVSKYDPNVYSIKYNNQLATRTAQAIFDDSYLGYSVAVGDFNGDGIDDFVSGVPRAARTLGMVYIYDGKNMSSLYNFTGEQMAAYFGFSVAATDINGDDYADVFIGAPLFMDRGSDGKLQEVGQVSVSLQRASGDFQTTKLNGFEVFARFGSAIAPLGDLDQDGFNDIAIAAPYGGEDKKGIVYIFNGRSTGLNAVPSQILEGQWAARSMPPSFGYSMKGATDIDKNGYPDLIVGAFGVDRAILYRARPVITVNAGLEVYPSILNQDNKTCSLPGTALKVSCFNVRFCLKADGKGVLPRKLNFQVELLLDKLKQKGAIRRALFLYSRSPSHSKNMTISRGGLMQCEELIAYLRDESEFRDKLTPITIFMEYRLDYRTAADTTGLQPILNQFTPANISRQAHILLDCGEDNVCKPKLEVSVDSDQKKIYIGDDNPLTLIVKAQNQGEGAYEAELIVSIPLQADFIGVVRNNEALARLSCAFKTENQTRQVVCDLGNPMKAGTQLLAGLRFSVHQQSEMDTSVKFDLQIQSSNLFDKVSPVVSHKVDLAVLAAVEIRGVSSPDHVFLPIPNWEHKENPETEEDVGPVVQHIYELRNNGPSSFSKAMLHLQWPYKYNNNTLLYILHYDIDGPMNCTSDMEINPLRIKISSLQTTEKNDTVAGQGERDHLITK
Sequence (P06756 891-1048 limits assumed): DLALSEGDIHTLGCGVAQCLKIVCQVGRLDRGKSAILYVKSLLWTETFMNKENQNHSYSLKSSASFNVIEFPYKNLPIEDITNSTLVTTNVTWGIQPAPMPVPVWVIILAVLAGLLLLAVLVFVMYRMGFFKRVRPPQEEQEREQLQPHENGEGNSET
Experiment: Inhibition of human integrin alphavbeta3 (unknown origin)
Format: protein-complex assay
pIC50: −log10 of the molar value.
result-type: pIC50

Q: # get_value(readout='pIC50', item= `O=C(NC[C@H](NS(=O)(=O)c1cccnc1)C(=O)O)c1cc2cc(CCC3CCNCC3)sc2s1` )
Result: 7.72 to 8.10

* * *

Biological target: Integrin alpha-IIb/beta-3 (Homo sapiens, UniProt P05106+P08514)
Test: Inhibition of FITC-dodecapeptide binding to human integrin alpha2b beta3 receptor stably expressed in CHO Lec.3.2.8.1 cells by fluorescence anisotropy
result-type: IC50 (nM)
Quick note: give the figure in nM, leave out the unit.

Q: Request - read-out IC50 | tested on Integrin alpha-IIb/beta-3 (Homo sapiens, UniProt P05106+P08514) | compound N=C(N)c1ccc(C(=O)NCCC(=O)N[C@@H](CC(=O)O)C(=O)NC(Cc2ccccc2)C(=O)O)cc1 (stereo partly specified)
Result: 0.6

* * *

Biological target: Integrin alpha2/beta1 (Homo sapiens, UniProt P05556+P17301)
Sequence (P05556 whole entry): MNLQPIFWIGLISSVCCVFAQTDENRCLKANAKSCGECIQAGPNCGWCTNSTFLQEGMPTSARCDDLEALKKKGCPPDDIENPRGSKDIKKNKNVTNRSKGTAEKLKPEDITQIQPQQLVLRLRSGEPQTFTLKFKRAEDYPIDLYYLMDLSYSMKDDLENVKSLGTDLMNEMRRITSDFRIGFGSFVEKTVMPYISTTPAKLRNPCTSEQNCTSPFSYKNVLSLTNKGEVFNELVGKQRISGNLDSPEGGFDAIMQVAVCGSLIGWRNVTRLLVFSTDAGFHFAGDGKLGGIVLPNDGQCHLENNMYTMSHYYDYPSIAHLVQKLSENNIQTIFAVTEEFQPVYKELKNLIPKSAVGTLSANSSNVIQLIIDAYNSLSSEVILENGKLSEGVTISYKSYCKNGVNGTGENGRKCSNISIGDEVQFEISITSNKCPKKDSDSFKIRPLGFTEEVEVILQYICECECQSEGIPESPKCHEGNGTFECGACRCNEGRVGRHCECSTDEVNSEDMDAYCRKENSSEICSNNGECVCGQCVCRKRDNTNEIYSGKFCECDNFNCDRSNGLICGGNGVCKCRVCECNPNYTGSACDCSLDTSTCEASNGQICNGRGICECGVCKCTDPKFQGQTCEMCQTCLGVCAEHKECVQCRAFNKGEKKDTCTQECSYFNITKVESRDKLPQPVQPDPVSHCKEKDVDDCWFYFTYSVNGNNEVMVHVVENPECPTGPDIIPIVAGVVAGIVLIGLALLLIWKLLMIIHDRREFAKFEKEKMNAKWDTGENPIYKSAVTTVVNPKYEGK
Sequence (P17301 whole entry): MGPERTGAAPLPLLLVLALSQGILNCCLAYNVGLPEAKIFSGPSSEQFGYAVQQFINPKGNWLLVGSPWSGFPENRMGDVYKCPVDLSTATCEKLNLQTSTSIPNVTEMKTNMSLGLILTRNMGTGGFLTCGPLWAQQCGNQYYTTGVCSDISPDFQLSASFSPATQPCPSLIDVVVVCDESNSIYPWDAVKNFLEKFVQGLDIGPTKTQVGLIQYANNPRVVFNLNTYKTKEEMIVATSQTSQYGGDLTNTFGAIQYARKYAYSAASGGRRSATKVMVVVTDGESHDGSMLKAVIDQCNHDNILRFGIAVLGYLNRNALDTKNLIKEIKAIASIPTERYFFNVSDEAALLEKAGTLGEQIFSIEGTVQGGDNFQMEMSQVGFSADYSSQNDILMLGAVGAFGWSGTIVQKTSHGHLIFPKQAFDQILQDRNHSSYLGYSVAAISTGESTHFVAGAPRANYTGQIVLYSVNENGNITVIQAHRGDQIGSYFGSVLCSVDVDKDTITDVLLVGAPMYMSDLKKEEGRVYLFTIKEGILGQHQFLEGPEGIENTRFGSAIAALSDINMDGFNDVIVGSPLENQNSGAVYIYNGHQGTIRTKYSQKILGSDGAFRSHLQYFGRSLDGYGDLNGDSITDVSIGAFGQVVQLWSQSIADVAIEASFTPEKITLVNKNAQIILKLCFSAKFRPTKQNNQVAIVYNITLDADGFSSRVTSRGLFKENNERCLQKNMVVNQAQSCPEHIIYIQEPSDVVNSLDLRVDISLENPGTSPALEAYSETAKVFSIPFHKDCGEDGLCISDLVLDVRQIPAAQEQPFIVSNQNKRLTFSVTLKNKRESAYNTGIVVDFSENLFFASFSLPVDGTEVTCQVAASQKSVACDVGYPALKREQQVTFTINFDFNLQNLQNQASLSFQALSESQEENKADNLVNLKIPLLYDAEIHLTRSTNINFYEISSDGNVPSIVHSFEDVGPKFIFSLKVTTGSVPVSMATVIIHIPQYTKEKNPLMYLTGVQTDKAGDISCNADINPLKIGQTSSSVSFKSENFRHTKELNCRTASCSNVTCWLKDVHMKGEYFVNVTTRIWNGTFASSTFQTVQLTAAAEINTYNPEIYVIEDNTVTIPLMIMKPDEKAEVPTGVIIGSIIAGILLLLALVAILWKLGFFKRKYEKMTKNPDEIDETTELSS
Test: Inhibition of human alpha2 beta1 expressed in CHO cells assessed as reduction in cell adhesion to collagen type 1 incubated for 5 mins by DiOC6 dye based fluorescence microscopy
Consider the following compounds; for each one, report its EC50.
Quick note: give the figure in µM, leave out the unit.

Q: # get_value(readout='EC50', item= `CN(c1ccc(NC(=O)Nc2ccccc2)cc1)S(=O)(=O)c1cnn(-c2ccc(F)cc2)c1` )
Result: 0.13

Q: # get_value(readout='EC50', item= `CN(c1ccc(NC(=O)Nc2ccccc2)cc1)S(=O)(=O)c1ccc(-c2ccnn2C)s1` )
Result: 0.16

* * *

Target: Integrin alpha-4/beta-1 (Homo sapiens, UniProt P05556+P13612)
Experiment: Binding affinity to human integrin alpha4beta1 incubated for 6 hrs by radioligand binding assay
result-type: pKd
pKd is defined as minus the log10 of a concentration measured in mol/L.

Q: # get_value(readout='pKd', item= `N=C(N)NCCCCC(=O)Nc1ccc(C[C@H](NC(=O)[C@@H]2CCCN2S(=O)(=O)c2ccccc2)C(=O)O)cc1` )
Result: 9.10

* * *

Molecular target: Integrin alpha-V/beta-1 (Homo sapiens, UniProt P05556+P06756)
Sequence (P05556 21-798 limits assumed): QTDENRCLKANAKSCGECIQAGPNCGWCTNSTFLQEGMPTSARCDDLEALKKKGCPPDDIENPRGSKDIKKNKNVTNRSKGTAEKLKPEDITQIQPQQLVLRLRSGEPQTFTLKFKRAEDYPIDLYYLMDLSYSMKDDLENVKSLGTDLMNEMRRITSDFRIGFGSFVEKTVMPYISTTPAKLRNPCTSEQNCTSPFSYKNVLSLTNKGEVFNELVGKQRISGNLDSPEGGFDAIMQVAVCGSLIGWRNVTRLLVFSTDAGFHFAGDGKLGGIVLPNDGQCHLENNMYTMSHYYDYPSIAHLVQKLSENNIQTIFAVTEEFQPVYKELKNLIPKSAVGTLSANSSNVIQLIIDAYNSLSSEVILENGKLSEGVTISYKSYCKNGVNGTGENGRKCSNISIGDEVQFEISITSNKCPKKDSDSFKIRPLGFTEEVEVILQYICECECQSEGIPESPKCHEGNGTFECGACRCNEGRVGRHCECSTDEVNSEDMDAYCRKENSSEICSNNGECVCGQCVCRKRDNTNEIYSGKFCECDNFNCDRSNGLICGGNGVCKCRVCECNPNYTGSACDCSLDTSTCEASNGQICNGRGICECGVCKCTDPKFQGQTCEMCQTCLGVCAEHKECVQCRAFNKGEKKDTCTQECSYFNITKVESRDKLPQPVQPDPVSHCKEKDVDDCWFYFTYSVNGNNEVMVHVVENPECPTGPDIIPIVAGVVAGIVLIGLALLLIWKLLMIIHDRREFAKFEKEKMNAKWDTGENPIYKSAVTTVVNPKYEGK
Sequence (P06756 31-889 limits assumed): as the sequence (P06756 31-889 limits assumed) above
Sequence (P06756 891-1048 limits assumed): as the sequence (P06756 891-1048 limits assumed) above
Test: Displacement of [3H] C8 from human integrin alphavbeta1 incubated for 6 hrs by competition binding assay
result-type: pKi
pKi is defined as minus the log10 of a concentration measured in mol/L.

Q: Request - read-out pKi | tested on Integrin alpha-V/beta-1 (Homo sapiens, UniProt P05556+P06756) | molecule `CCNC(=O)Nc1cnnc(-c2ccc(C[C@H](NC(=O)c3c(Cl)cccc3Cl)C(=O)O)cc2)c1`
Result: 9.78
